Readings of solubility kinetic for the listed compounds
EXPERIMENTAL_SETUP: buffer; pH 7.4; 200.0 µM

# COMPOUND, BOUND_SIGN, solubility kinetic (µg/mL)
data = [
    ("O=C(Nc1ccccc1)c1cn(CCBr)cn1", ">", 44.1),
    ("CC(C)(C)NC(=O)c1ccc2c(c1)CCO2", ">", 32.9),
    ("O=C(/C=C/c1ccc(F)cc1)N1CCc2ccccc2C1", "=", 12.5),
    ("COC(=O)c1ccc2c(=O)[nH]c(COC(=O)c3[nH]c(C)c(C(C)=O)c3C)nc2c1", "=", 18.1),
    ("COc1cc(C(=O)Nc2nnc(C)s2)c([N+](=O)[O-])cc1OC", ">", 48.6),
    ("Cc1cccc(C)c1NC(=O)COC(=O)C1CC1", "=", 32.7),
    ("CCc1ccc2c(CN3CCOCC3)cc(=O)oc2c1", ">", 41),
    ("COc1cc([N+](=O)[O-])ccc1NC(=S)N1CCOCC1", ">", 44.6),
    ("Cc1cccc(C(=O)NC(C)c2ccc(-n3ccnc3)cc2)c1C (stereo not given)", "=", 43),
    ("COc1ccc(NC(=O)c2cc3ccccc3o2)cc1OC", "=", 7.9),
    ("Nc1nc(NCc2ccc(Cl)cc2)nc(NCCO)c1[N+](=O)[O-]", "=", 45.9),
    ("COc1ccc(CCNc2cc(C)nc(N)n2)cc1OC", ">", 43.3),
    ("Cc1oc(S(=O)(=O)N(C)C)cc1C(=O)Nc1ccc(F)cc1", "=", 2.3),
    ("CCOC(=O)c1sc(=S)n(-c2ccccc2Cl)c1C", "=", 2.7),
    ("CC1Cc2ccccc2N1C(=O)Cn1cc([N+](=O)[O-])ccc1=O (stereo not given)", ">", 47),
    ("CCC(=O)c1cn(CC(=O)Nc2cccc(OC)c2)c2ccccc12", "<", 0.4),
    ("O=C(c1ccc(F)cc1Cl)N1CCC2(CC1)OCCO2", ">", 45),
    ("N#Cc1ccc(NCC(=O)Nc2ccc3c(c2)OCCO3)cc1", "=", 29.6),
    ("CCC(=O)Nc1ccccc1-c1nc2ccccc2[nH]c1=O", ">", 44),
    ("CCN(Cc1ccccc1)C(=O)c1[nH]c2ccc(OC)cc2c1C", "=", 31.2),
    ("Clc1ccccc1OCCCCN1CCCCC1", "=", 39.9),
    ("O=C(O)c1cccnc1C(=O)c1ccccc1", "=", 31.9),
    ("O=C(Nc1ccc(F)c(Cl)c1)c1cncs1", ">", 38.5),
    ("O=C(NC(=S)Nc1cccc2ncccc12)c1ccccc1", "=", 2.7),
    ("COc1cccc(C(=O)O/N=C(\\N)c2ccccn2)c1", ">", 40.7),
    ("c1ccc(CNc2ncnc3sc4c(c23)CCCC4)nc1", "=", 6.7),
    ("Cc1cccc(NC(=O)C2CC2c2ccccc2)c1C (stereo not given)", "=", 3.8),
    ("CN(C)C(CNC1CC(C)(C)NC(C)(C)C1)c1cccc(F)c1 (stereo not given)", "=", 34.7),
    ("CC1CCc2onc(C(=O)NCc3ccco3)c2C1 (stereo not given)", "=", 22.6),
    ("CC#C[C@]1(O)CC[C@H]2[C@@H]3CCC4=CC(=O)CCC4=C3[C@@H](c3ccc(N(C)C)cc3)C[C@@]21C", "=", 7),
    ("Cc1cccc(C(=O)OCC(=O)NCC2CCCO2)c1O (stereo not given)", ">", 44),
    ("Cc1cccnc1NC(=O)CNC(=O)COc1ccccc1", ">", 44.9),
    ("CCC1Oc2ccccc2N(CC(=O)N2CCOCC2)C1=O (stereo not given)", ">", 45.7),
    ("Cc1cc(/C=C(\\C#N)C(=O)N2CCCCC2)cc(C)c1O", ">", 42.7),
    ("O=C(CSCc1ccccc1Cl)NCCSc1ccccn1", "=", 50.4),
    ("Cc1ccccc1OCc1nc2ccccc2n1C", "=", 3.1),
    ("Cc1ccccc1CC(=O)N1CCOCC1", ">", 32.9),
    ("O=C(CNC(=O)c1ccc(Br)cc1)NC1CC1", ">", 44.6),
    ("O=C(/C=C\\c1ccccc1)Nc1ccc(NC(=O)c2ccco2)cc1", "<", 0.4),
    ("O=C(Cc1cccs1)N1CCN(c2cccc(Cl)c2)CC1", "=", 42.9),
]

The measured values listed here are drawn from PubChem BioAssay AID1996.
